pIC50: −log10 of the molar value.
The following molecules each carry a recorded pIC50 for VEGFR3 (Homo sapiens, UniProt P35916).

molecule	pIC50
COc1cccc(C#Cc2ccnc3[nH]ccc23)n1 [compound 63]	6.00 to 7.00
COC(=O)c1cccc(C#Cc2ccnc3[nH]ccc23)c1 [compound 55]	6.00 to 7.00
C[Si](C)(C)C#Cc1ncnc2sc3c(c12)CCCC3 [compound 112]	< 6.00
O=C(NCc1ccccc1C#Cc1ccnc2[nH]ccc12)Nc1ccccc1 [compound 113]	< 6.00
C(#Cc1ccnc2[nH]ccc12)c1ccoc1 [compound 44]	6.00 to 7.00
FC(F)(F)Oc1ccc(C#Cc2ccnc3[nH]ccc23)cc1 [compound 120]	< 6.00
C(#Cc1ccnc2[nH]ccc12)c1ccncc1 [compound 87]	< 6.00
C(#Cc1ccnc2[nH]ccc12)c1ccc(-c2ccccc2)cc1 [compound 133]	< 6.00
C(#Cc1ccnc2[nH]ccc12)c1cccnc1 [compound 82]	< 6.00

We now examine a further molecule.
Would you mind telling me what pIC50 value was observed for C(#Cc1ccnc2[nH]ccc12)c1cccc(-c2ccccc2)c1 [compound 98] ?
< 6.00
